- experiment: Concentration required for 50% reduction in KB cell number after 3-day incubation
- Type: functional, cell-based, Homo sapiens
List of IC50 values.

| compound | IC50 |
| --- | --- |
| COc1cc([C@@H]2c3cc4c(cc3[C@@H](Nc3ccc5c(c3)OCCO5)[C@H]3COC(=O)[C@H]23)OCO4)c(Cl)c(OC)c1O | > 7000 nM |
| COc1cc([C@@H]2c3cc4c(cc3[C@@H](Nc3ccc5c(c3)OCO5)[C@H]3COC(=O)[C@H]23)OCO4)cc(OC)c1O | 680 nM |
| COc1cc([C@@H]2c3cc4c(cc3[C@@H](Nc3ccc5c(c3)OCO5)[C@H]3COC(=O)[C@H]23)OCO4)c(Cl)c(OC)c1O | > 7200 nM |
| COc1cc([C@@H]2c3cc4c(cc3[C@@H](Nc3ccc([N+](=O)[O-])cc3)[C@H]3COC(=O)[C@H]23)OCO4)cc(OC)c1O | 490 nM |

QUERY: Name the reported IC50 value associated with the compound COc1cc([C@@H]2c3cc4c(cc3[C@@H](O)[C@H]3COC(=O)[C@H]23)OCO4)c(Cl)c(OC)c1O
RESULT: > 22300 nM

QUERY: Name the reported IC50 value associated with the compound COc1cc([C@@H]2c3cc4c(cc3[C@@H](Nc3ccc(Br)cc3)[C@H]3COC(=O)[C@H]23)OCO4)c(Cl)c(OC)c1O
RESULT: > 6800 nM

QUERY: Name the reported IC50 value associated with the compound COc1cc([C@@H]2c3cc4c(cc3[C@@H](Nc3ccc(F)cc3)[C@H]3COC(=O)[C@H]23)OCO4)cc(OC)c1O
RESULT: 240 nM

QUERY: Name the reported IC50 value associated with the compound COc1cc([C@@H]2c3cc4c(cc3[C@@H](O[C@@H]3O[C@@H]5CO[C@@H](C)O[C@H]5[C@H](O)[C@H]3O)[C@H]3COC(=O)[C@H]23)OCO4)c(Cl)c(OC)c1O
RESULT: > 6400 nM

QUERY: Name the reported IC50 value associated with the compound COc1cc([C@@H]2c3cc4c(cc3[C@@H](Nc3ccc(F)cc3)[C@H]3COC(=O)[C@H]23)OCO4)c(Cl)c(OC)c1O
RESULT: > 7500 nM

QUERY: Name the reported IC50 value associated with the compound COc1cc([C@@H]2c3cc4c(cc3[C@@H](O[C@@H]3O[C@@H]5CO[C@@H](C)O[C@H]5[C@H](O)[C@H]3O)[C@H]3COC(=O)[C@H]23)OCO4)cc(OC)c1O [ETOPOSIDE]
RESULT: 200 nM

QUERY: Name the reported IC50 value associated with the compound COc1cc([C@@H]2c3cc4c(cc3[C@@H](Nc3ccc([N+](=O)[O-])cc3)[C@H]3COC(=O)[C@H]23)OCO4)c(Cl)c(OC)c1O
RESULT: > 7200 nM
